System: S. pneumoniae D39V;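 further: first quartile when negative (synergy) and third quartile when positive (antagonism)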
protocol_notes: Bliss interaction score (quartile over a dose matrix) (fitness difference); higher = more antagonism (negative = synergy)
endpoint_label: Bliss interaction score
Give the value as a plain number.

compound	observed_result
CC[C@H]1OC(=O)[C@H](C)[C@@H](O[C@H]2C[C@@](C)(OC)[C@@H](O)[C@H](C)O2)[C@H](C)[C@@H](O[C@@H]2O[C@H](C)C[C@H](N(C)C)[C@H]2O)[C@](C)(O)C[C@@H](C)C(=O)[C@H](C)[C@@H](O)[C@]1(C)O [Erythromycin] + CC1=C\[C@@H](O)CC(=O)Cc2nc(co2)C(=O)N2CCC=C2C(=O)O[C@H](C(C)C)[C@H](C)/C=C/C(=O)NC\C=C\1 [Virginiamycin M1]	0.0687

# next compound below
Prompt: # input compound: CO[C@@H]1[C@@H](OC(N)=O)[C@@H](O)[C@H](Oc2ccc3c(O)c(NC(=O)c4ccc(O)c(CC=C(C)C)c4)c(=O)oc3c2C)OC1(C)C [Novobiocin] + C[n+]1ccc(-c2cc[n+](C)cc2)cc1 [Paraquat] ; wanted: its Bliss interaction score
Completion: 0.0614

====

System: S. pneumoniae D39V;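 further: first quartile when negative (synergy) and third quartile when positive (antagonism)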
protocol_notes: Bliss interaction score (quartile over a dose matrix) (fitness difference); higher = more antagonism (negative = synergy)
Recorded Bliss interaction score for the following molecules
Give the value as a plain number.

Worked cases, answers included:
molecule	measured_target	Bliss interaction score
CC[C@H]1OC(=O)[C@H](C)[C@@H](O[C@H]2C[C@@](C)(OC)[C@@H](O)[C@H](C)O2)[C@H](C)[C@@H](O[C@@H]2O[C@H](C)C[C@H](N(C)C)[C@H]2O)[C@](C)(O)C[C@@H](C)C(=O)[C@H](C)[C@@H](O)[C@]1(C)O [Erythromycin] + O=C1CN(/N=C/c2ccc([N+](=O)[O-])o2)C(=O)N1 [Nitrofurantoin]	S. pneumoniae D39V	-0.197
CO[C@H]1/C=C/O[C@@]2(C)Oc3c(C)c(O)c4c(O)c(c(/C=N/N5CCN(C)CC5)c(O)c4c3C2=O)NC(=O)/C(C)=C\C=C\[C@H](C)[C@H](O)[C@@H](C)[C@@H](O)[C@@H](C)[C@H](OC(C)=O)[C@@H]1C [Rifampicin] + Cc1cc(NS(=O)(=O)c2ccc(N)cc2)no1 [Sulfamethoxazol]	S. pneumoniae D39V	0.0639
CO[C@@]12[C@H](COC(N)=O)C3=C(C(=O)C(C)=C(N)C3=O)N1C[C@@H]1N[C@@H]12 [MitomycinC] + COc1cc(Cc2cnc(N)nc2N)cc(OC)c1OC [Trimethoprim]	S. pneumoniae D39V	-0.141

# next molecule below
Prompt: Return Bliss interaction score measured with S. pneumoniae D39V given this molecule: CO[C@@]12[C@H](COC(N)=O)C3=C(C(=O)C(C)=C(N)C3=O)N1C[C@@H]1N[C@@H]12 [MitomycinC] + CO[C@@H]1[C@@H](OC(N)=O)[C@@H](O)[C@H](Oc2ccc3c(O)c(NC(=O)c4ccc(O)c(CC=C(C)C)c4)c(=O)oc3c2C)OC1(C)C [Novobiocin]
Completion: -0.11

====

System: S. pneumoniae D39V;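 further: first quartile when negative (synergy) and third quartile when positive (antagonism)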
protocol_notes: Bliss interaction score (quartile over a dose matrix) (fitness difference); higher = more antagonism (negative = synergy)
endpoint_label: Bliss interaction score
Give the value as a plain number.

Worked cases, answers included:
compound	endpoint_label	observed_result
CO[C@@H]1[C@@H](OC(N)=O)[C@@H](O)[C@H](Oc2ccc3c(O)c(NC(=O)c4ccc(O)c(CC=C(C)C)c4)c(=O)oc3c2C)OC1(C)C [Novobiocin] + CN(C)c1cc(NC(=O)CNC(C)(C)C)c(O)c2c1C[C@H]1C[C@H]3[C@H](N(C)C)C(O)=C(C(N)=O)C(=O)[C@@]3(O)C(O)=C1C2=O [Tigecycline]	Bliss interaction score	0.0803
CC[C@H]1OC(=O)[C@H](C)[C@@H](O[C@H]2C[C@@](C)(OC)[C@@H](O)[C@H](C)O2)[C@H](C)[C@@H](O[C@@H]2O[C@H](C)C[C@H](N(C)C)[C@H]2O)[C@](C)(O)C[C@@H](C)C(=O)[C@H](C)[C@@H](O)[C@]1(C)O [Erythromycin] + CN(C)c1cc(NC(=O)CNC(C)(C)C)c(O)c2c1C[C@H]1C[C@H]3[C@H](N(C)C)C(O)=C(C(N)=O)C(=O)[C@@]3(O)C(O)=C1C2=O [Tigecycline]	Bliss interaction score	-0.0975
CC(=O)NC[C@H]1CN(c2ccc(N3CCOCC3)c(F)c2)C(=O)O1 [Linezolid] + Oc1cc(Cl)ccc1Oc1ccc(Cl)cc1Cl [Triclosan]	Bliss interaction score	-0.0928
CO[C@@H]1[C@@H](OC(N)=O)[C@@H](O)[C@H](Oc2ccc3c(O)c(NC(=O)c4ccc(O)c(CC=C(C)C)c4)c(=O)oc3c2C)OC1(C)C [Novobiocin] + COc1ccc(C[C@H](N)C(=O)N[C@H]2[C@@H](O)[C@H](n3cnc4c(N(C)C)ncnc43)O[C@@H]2CO)cc1 [Puromycin]	Bliss interaction score	0.105
CO[C@@]12[C@H](COC(N)=O)C3=C(C(=O)C(C)=C(N)C3=O)N1C[C@@H]1N[C@@H]12 [MitomycinC] + CN(C)c1cc(NC(=O)CNC(C)(C)C)c(O)c2c1C[C@H]1C[C@H]3[C@H](N(C)C)C(O)=C(C(N)=O)C(=O)[C@@]3(O)C(O)=C1C2=O [Tigecycline]	Bliss interaction score	0.0464
CO[C@@]12[C@H](COC(N)=O)C3=C(C(=O)C(C)=C(N)C3=O)N1C[C@@H]1N[C@@H]12 [MitomycinC] + CN[C@H](CC(C)C)C(=O)N[C@H]1C(=O)N[C@@H](CC(N)=O)C(=O)N[C@H]2C(=O)N[C@H]3C(=O)N[C@H](C(=O)N[C@H](C(=O)O)c4cc(O)cc(O)c4-c4cc3ccc4O)[C@H](O)c3ccc(c(Cl)c3)Oc3cc2cc(c3O[C@@H]2O[C@H](CO)[C@@H](O)[C@H](O)[C@H]2O[C@H]2C[C@](C)(N)[C@H](O)[C@H](C)O2)Oc2ccc(cc2Cl)[C@H]1O [Vancomycin]	Bliss interaction score	0.124

# next compound below
Prompt: Return Bliss interaction score measured with S. pneumoniae D39V given this compound: CO[C@@H]1[C@@H](OC(N)=O)[C@@H](O)[C@H](Oc2ccc3c(O)c(NC(=O)c4ccc(O)c(CC=C(C)C)c4)c(=O)oc3c2C)OC1(C)C [Novobiocin] + C/C(=C\C(=O)OCCCCCCCCC(=O)O)C[C@@H]1OC[C@H](C[C@@H]2O[C@H]2[C@@H](C)[C@H](C)O)[C@@H](O)[C@H]1O [Pseudomonic acid]
Completion: 0.241

====

Test system: B. subtilis 168;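 further: OD595 on entry to stationary phase over no-drug wells; at most 1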
protocol_notes: fitness (endpoint OD595 vs no drug) (fraction); higher = more growth
condition_description: first compound 75 µg/mL; partner 1.25 µg/mL; main component drawn
endpoint_label: fitness
Give the value as a plain number.

compound	fitness
CC[C@H](C)[C@H](N)C1=N[C@H](C(=O)N[C@@H](CC(C)C)C(=O)N[C@H](CCC(=O)O)C(=O)N[C@H](C(=O)N[C@H]2CCCCNC(=O)[C@H](CC(N)=O)NC(=O)[C@@H](CC(=O)O)NC(=O)[C@H](Cc3cnc[nH]3)NC(=O)[C@@H](Cc3ccccc3)NC(=O)[C@H]([C@@H](C)CC)NC(=O)[C@@H](CCCN)NC2=O)[C@@H](C)CC)CS1 [Bacitracin] + Cc1ncc([N+](=O)[O-])n1CCO [Metronidazole]	0.931
CC[C@H](C)[C@H](N)C1=N[C@H](C(=O)N[C@@H](CC(C)C)C(=O)N[C@H](CCC(=O)O)C(=O)N[C@H](C(=O)N[C@H]2CCCCNC(=O)[C@H](CC(N)=O)NC(=O)[C@@H](CC(=O)O)NC(=O)[C@H](Cc3cnc[nH]3)NC(=O)[C@@H](Cc3ccccc3)NC(=O)[C@H]([C@@H](C)CC)NC(=O)[C@@H](CCCN)NC2=O)[C@@H](C)CC)CS1 [Bacitracin] + CN1C2=CC=CC=C2N=C3C1=CC=CC3=O [Pyocyanin]	0.931

Prompt: Return fitness measured with B. subtilis 168 given this compound: CC[C@H](C)[C@H](N)C1=N[C@H](C(=O)N[C@@H](CC(C)C)C(=O)N[C@H](CCC(=O)O)C(=O)N[C@H](C(=O)N[C@H]2CCCCNC(=O)[C@H](CC(N)=O)NC(=O)[C@@H](CC(=O)O)NC(=O)[C@H](Cc3cnc[nH]3)NC(=O)[C@@H](Cc3ccccc3)NC(=O)[C@H]([C@@H](C)CC)NC(=O)[C@@H](CCCN)NC2=O)[C@@H](C)CC)CS1 [Bacitracin] + COc1cccc2c1C(=O)c1c(O)c3c(c(O)c1C2=O)C[C@@](O)(C(=O)CO)C[C@@H]3O[C@H]1C[C@H](N)[C@H](O)[C@H](C)O1 [Doxorubicin]
Completion: 0.792

Prompt: Return fitness measured with B. subtilis 168 given this compound: CC[C@H](C)[C@H](N)C1=N[C@H](C(=O)N[C@@H](CC(C)C)C(=O)N[C@H](CCC(=O)O)C(=O)N[C@H](C(=O)N[C@H]2CCCCNC(=O)[C@H](CC(N)=O)NC(=O)[C@@H](CC(=O)O)NC(=O)[C@H](Cc3cnc[nH]3)NC(=O)[C@@H](Cc3ccccc3)NC(=O)[C@H]([C@@H](C)CC)NC(=O)[C@@H](CCCN)NC2=O)[C@@H](C)CC)CS1 [Bacitracin] + C[n+]1ccc(-c2cc[n+](C)cc2)cc1 [Paraquat]
Completion: 0.924
